Let's look at some binders and their measured fold change of affinity.
Tgt: T1, Human CD137 ECD (human)
T1 construct: entry includes C-terminal His-tag and biotin acceptor peptide; also called human CD137 extracellular domain; 4-1BB
Assay Comment: Biacore SPR, vs parent H183/L072
Outcome Measure: fold change of affinity

[[record]]
binder = "H183/L072 VL S93K (antibody, name in Kabat numbering, V domains shown, Dual-Ig) VH: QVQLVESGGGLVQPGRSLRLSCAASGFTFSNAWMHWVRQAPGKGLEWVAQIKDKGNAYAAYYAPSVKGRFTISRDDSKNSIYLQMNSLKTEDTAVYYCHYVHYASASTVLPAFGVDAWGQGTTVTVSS VL: DIVMTQSPLSLPVTPGEPASISCQASQELVHMNRNTYLHWYQQKPGQAPRLLIYKVSNRFPGVPDRFSGSGSGTDFTLKISRVEAEDVGVYYCAQGTKVPFTFGQGTKLEIK"
outcome_measure = "fold change of affinity"
value_reported = "1.1 fold"

[[record]]
binder = "H183/L072 VL N30V (antibody, name in Kabat numbering, V domains shown, Dual-Ig) VH: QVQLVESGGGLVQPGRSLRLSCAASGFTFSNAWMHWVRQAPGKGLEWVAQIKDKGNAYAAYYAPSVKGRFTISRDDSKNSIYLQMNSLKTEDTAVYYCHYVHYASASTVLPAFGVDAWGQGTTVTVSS VL: DIVMTQSPLSLPVTPGEPASISCQASQELVHMNRVTYLHWYQQKPGQAPRLLIYKVSNRFPGVPDRFSGSGSGTDFTLKISRVEAEDVGVYYCAQGTSVPFTFGQGTKLEIK"
outcome_measure = "fold change of affinity"
value_reported = "0.7 fold"

[[record]]
binder = "H183/L072 VL R54G (antibody, name in Kabat numbering, V domains shown, Dual-Ig) VH: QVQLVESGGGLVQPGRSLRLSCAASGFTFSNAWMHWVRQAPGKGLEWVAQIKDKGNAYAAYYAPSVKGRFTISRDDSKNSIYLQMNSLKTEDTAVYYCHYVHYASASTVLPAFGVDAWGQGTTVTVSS VL: DIVMTQSPLSLPVTPGEPASISCQASQELVHMNRNTYLHWYQQKPGQAPRLLIYKVSNGFPGVPDRFSGSGSGTDFTLKISRVEAEDVGVYYCAQGTSVPFTFGQGTKLEIK"
outcome_measure = "fold change of affinity"
value_reported = "0.9 fold"

